Assay: Aqueous solubility of amlodipine salts and pH at saturation
Assay type: physicochemical
Details: at saturation
Counter-ions that a name gives are not always drawn.
Listing of entries alongside the reported pH at saturation.
Simply state the number, no unit and no words.

Examples with their reported pH at saturation follow.
[
  {
    "COMPOUND": "CCOC(=O)C1=C(COCCN)NC(C)=C(C(=O)OC)C1c1ccccc1Cl (stereo not shown) [Acetate]",
    "RECORDED MEASUREMENT": 6.6
  },
  {
    "COMPOUND": "CCOC(=O)C1=C(COCCN)NC(C)=C(C(=O)OC)C1c1ccccc1Cl (stereo not shown) [Hydrochloride]",
    "RECORDED MEASUREMENT": 3.5
  },
  {
    "COMPOUND": "CCOC(=O)C1=C(COCCN)NC(C)=C(C(=O)OC)C1c1ccccc1Cl (stereo not shown) [Maleate]",
    "RECORDED MEASUREMENT": 4.8
  }
]

Note: attention shifts to another entry.
Exercise: Give reported pH at saturation value for CCOC(=O)C1=C(COCCN)NC(C)=C(C(=O)OC)C1c1ccccc1Cl (stereo not shown) [Succinate]
Solution: 4.9

---

Test: Stickiness: amlodipine sticking to tablet punch (processability)
Format: physicochemical
Details: relative to maleate
Structures can show the parent of a compound that is named as a salt.
OUTCOME MEASURE: Stickiness relative to maleate (%)
# value in %; strip the unit string

[
  {
    "COMPOUND": "CCOC(=O)C1=C(COCCN)NC(C)=C(C(=O)OC)C1c1ccccc1Cl (stereo not shown) [Succinate]",
    "UNIT": "%",
    "Stickiness relative to maleate": 121
  },
  {
    "COMPOUND": "CCOC(=O)C1=C(COCCN)NC(C)=C(C(=O)OC)C1c1ccccc1Cl (stereo not shown) [Hydrochloride]",
    "UNIT": "%",
    "Stickiness relative to maleate": 127
  },
  {
    "COMPOUND": "CCOC(=O)C1=C(COCCN)NC(C)=C(C(=O)OC)C1c1ccccc1Cl (stereo not shown) [Tosylate]",
    "UNIT": "%",
    "Stickiness relative to maleate": 98
  },
  {
    "COMPOUND": "CCOC(=O)C1=C(COCCN)NC(C)=C(C(=O)OC)C1c1ccccc1Cl (stereo not shown) [Maleate]",
    "UNIT": "%",
    "Stickiness relative to maleate": 100
  },
  {
    "COMPOUND": "CCOC(=O)C1=C(COCCN)NC(C)=C(C(=O)OC)C1c1ccccc1Cl (stereo not shown) [Free base]",
    "UNIT": "%",
    "Stickiness relative to maleate": 102
  },
  {
    "COMPOUND": "CCOC(=O)C1=C(COCCN)NC(C)=C(C(=O)OC)C1c1ccccc1Cl (stereo not shown) [Besylate, amlodipine benzenesulphonate]",
    "UNIT": "%",
    "Stickiness relative to maleate": 59
  }
]

Kindly consider the entry below.
Exercise: State its Stickiness relative to maleate for this compound: CCOC(=O)C1=C(COCCN)NC(C)=C(C(=O)OC)C1c1ccccc1Cl (stereo not shown) [Mesylate]
Solution: 58

---

Each entry below lists one item and its recorded solubility value.
Test: Aqueous solubility of amlodipine salts and pH at saturation
Assay type: physicochemical
Where a name gives a salt, the structure may show the parent alone.
Numeric answer only, unit µg/mL assumed.

Examples from the recorded data:
[
  {
    "COMPOUND": "CCOC(=O)C1=C(COCCN)NC(C)=C(C(=O)OC)C1c1ccccc1Cl (centres unmarked) [Acetate]",
    "solubility, µg/mL": 50000
  },
  {
    "COMPOUND": "CCOC(=O)C1=C(COCCN)NC(C)=C(C(=O)OC)C1c1ccccc1Cl (centres unmarked) [Hydrochloride]",
    "solubility, µg/mL": 50000
  },
  {
    "COMPOUND": "CCOC(=O)C1=C(COCCN)NC(C)=C(C(=O)OC)C1c1ccccc1Cl (centres unmarked) [Maleate]",
    "solubility, µg/mL": 4500
  },
  {
    "COMPOUND": "CCOC(=O)C1=C(COCCN)NC(C)=C(C(=O)OC)C1c1ccccc1Cl (centres unmarked) [Salicylate]",
    "solubility, µg/mL": 1000
  }
]

Attention now shifts to the item below.
Exercise: Return solubility (reported value) for this compound: CCOC(=O)C1=C(COCCN)NC(C)=C(C(=O)OC)C1c1ccccc1Cl (centres unmarked) [Succinate]
Solution: 4400

---

Assay: Stickiness: amlodipine sticking to tablet punch (processability)
Assay type: physicochemical
Details: runs of 50 to 300 tablets, calcium sulphate dihydrate/microcrystalline cellulose/salt 47.5:47.5:5; average from slope
Counter-ions that a name gives are not always drawn.
Measured Stickiness of individual entries

Guide cases for Stickiness, answers given:
[
  {
    "COMPOUND": "CCOC(=O)C1=C(COCCN)NC(C)=C(C(=O)OC)C1c1ccccc1Cl (stereo not shown) [Mesylate]",
    "Stickiness": "1.16 g Amlodipine cm^-2 tablet^-1"
  },
  {
    "COMPOUND": "CCOC(=O)C1=C(COCCN)NC(C)=C(C(=O)OC)C1c1ccccc1Cl (stereo not shown) [Tosylate]",
    "Stickiness": "1.95 g Amlodipine cm^-2 tablet^-1"
  }
]

Exercise: Fill in reported Stickiness for this entry: CCOC(=O)C1=C(COCCN)NC(C)=C(C(=O)OC)C1c1ccccc1Cl (stereo not shown) [Besylate, amlodipine benzenesulphonate]
Solution: 1.17 g Amlodipine cm^-2 tablet^-1

Exercise: Please report Stickiness for the following compound: CCOC(=O)C1=C(COCCN)NC(C)=C(C(=O)OC)C1c1ccccc1Cl (stereo not shown) [Free base]
Solution: 2.02 g Amlodipine cm^-2 tablet^-1

Exercise: Answer with the recorded Stickiness for the compound listed here: CCOC(=O)C1=C(COCCN)NC(C)=C(C(=O)OC)C1c1ccccc1Cl (stereo not shown) [Hydrochloride]
Solution: 2.51 g Amlodipine cm^-2 tablet^-1

Exercise: Assign Stickiness to the following record: CCOC(=O)C1=C(COCCN)NC(C)=C(C(=O)OC)C1c1ccccc1Cl (stereo not shown) [Maleate]
Solution: 1.98 g Amlodipine cm^-2 tablet^-1

Exercise: Quote Stickiness reported for CCOC(=O)C1=C(COCCN)NC(C)=C(C(=O)OC)C1c1ccccc1Cl (stereo not shown) [Succinate] please.
Solution: 2.39 g Amlodipine cm^-2 tablet^-1
